Data origin: patent US20220363662A1

- TARGET_OR_SYSTEM: LXR beta (Homo sapiens, UniProt P55055)
- Construct: 5 μL of 4×LXR beta-LBD was added to each well (final concentration 5 nM)
- Sequence (P55055 222-460 limits assumed): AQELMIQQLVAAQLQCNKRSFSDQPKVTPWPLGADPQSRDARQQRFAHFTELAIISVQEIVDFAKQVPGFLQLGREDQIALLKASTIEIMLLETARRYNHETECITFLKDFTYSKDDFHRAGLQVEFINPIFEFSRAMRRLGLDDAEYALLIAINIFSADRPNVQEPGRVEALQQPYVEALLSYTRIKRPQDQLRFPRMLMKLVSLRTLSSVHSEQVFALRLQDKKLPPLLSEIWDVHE
- MEASUREMENT_NOTES: LXR beta agonist assay (Lanthascreen TR-FRET)
- CONDITION_INFO: LXR beta-LBD 5 nM, read-out: LXR-β EC50
- Method: EC50 values of compounds against LXR beta were determined at Integral BioSciences (India) using Lanthascreen TR-FRET (Thermofisher, Cat #PV4658). Assay was performed in a 20 μL final volume in a Black 384-well plate (Corning, Cat #4511). […] Analysis was done using the standard curve by non-linear regression, variable slope inhibitor curve fits (Graph-Pad Prism) and EC50's of compounds were determined wherever possible.
Consider the following compounds; for each one, report its EC50.
Answers are plain numbers, in µM.

Enquiry: Which EC50 value belongs to CN(C)C(=O)c1ccc(NC2CN(C3CCN(C(=O)C(F)(F)c4ccccc4Cl)CC3)C2)cc1Cl ?
Return: 5.68

Enquiry: # EC50 lookup, item CN(C)C(=O)c1ccc(N2CCN(C3CC4(C3)CN(S(=O)(=O)c3ccccc3C(F)(F)F)C4)CC2)cc1Cl
Return: 1.11

Turning now to a further record.
Enquiry: Can you share its EC50? I mean this compound: CN(C)C(=O)c1ccc(N(C)C2CN(C3CCN(C(=O)[C@](O)(c4ccccc4)C(F)(F)F)CC3)C2)cc1Cl
Return: 7.23
